measurement.notes: Stability in human plasma assessed as parent compound remaining at 2 uM after 60 mins by LC-MS/MS analysis
Type: ADME, cell-free
condition.notes: read-out: Stability
experimental.readout: remaining at 1 h, 2 µM (%)

smi | reported.result
CC(C)OC(=O)[C@H](Cn1ccnc1)NC(=O)c1noc2c1ccc1ccccc12 | 95.8

* * *

# MIC per entry
Tested on: Aspergillus fumigatus
measurement.notes: Antifungal activity against Aspergillus fumigatus cgmcc 3.7795 after 7 days by serial dilution method
Format: functional
condition.notes: cgmcc 3.7795, 168 h
experimental.readout: MIC (µg/mL)

smi | experimental.readout | units.text | relation | reported.result
CC(C)OC(=O)[C@H](Cn1ccnc1)NC(=O)c1cnc2ccccc2n1 | MIC | µg/mL | = | 64
COc1ccc2c(c1)-c1onc(C(=O)N[C@@H](Cn3ccnc3)C(=O)OC(C)C)c1CC2 | MIC | µg/mL | = | 64
CC(C)OC(=O)[C@H](Cn1ccnc1)NC(=O)c1noc2c1ccc1ccccc12 | MIC | µg/mL | = | 4
CC(C)OC(=O)[C@H](Cn1ccnc1)NC(=O)c1cc2ccccc2n1C | MIC | µg/mL | = | 64
CC(C)OC(=O)[C@H](Cn1ccnc1)NC(=O)c1ccc2ncoc2c1 | MIC | µg/mL | = | 64
CC(C)OC(=O)[C@H](Cn1ccnc1)NC(=O)c1nc2ccc(Br)cc2s1 | MIC | µg/mL | > | 64
Cc1nc2ccc(C(=O)N[C@@H](Cn3ccnc3)C(=O)OC(C)C)cc2o1 | MIC | µg/mL | = | 64
CC(C)COC(=O)[C@H](Cn1ccnc1)NC(=O)c1noc2c1ccc1ccccc12 | MIC | µg/mL | = | 16
CC(C)COC(=O)[C@H](Cn1ccnc1)NC(=O)c1cnc2ccccc2c1 | MIC | µg/mL | = | 64
CC(C)OC(=O)[C@H](Cn1ccnc1)NC(=O)c1cc2ccc(F)cc2[nH]1 | MIC | µg/mL | = | 64

* * *

measurement.notes: Stability in human plasma assessed as parent compound remaining at 2 uM after 120 mins by LC-MS/MS analysis
Assay type: ADME, cell-free
condition.notes: read-out: Stability

smi | units.text | remaining at 2 h, 2 µM
CC(C)OC(=O)[C@H](Cn1ccnc1)NC(=O)c1noc2c1ccc1ccccc12 | % | 91.7
